# Tested on: Chenopodium album (CHEAL), common lambsquarters
# PROTOCOL: Postemergence herbicide evaluation, growth of Chenopodium album (CHEAL)
# Format: in vivo
# MEASUREMENT_PARAMETERS: Chenopodium album, post-emergence, 336 h, 280 g ae/ha, 14 DAA, percent reduction in plant size relative to untreated control; read-out: Ave. CHEAL

[
  {
    "COMPOUND": "O=C(COc1ccc(Cl)cc1Cl)ON1CCCCC1 [Compound A11]",
    "UNIT_TEXT": "%",
    "pest or weed control at 280 g/ha": 75
  },
  {
    "COMPOUND": "O=C(Cc1ccccc1)NOC(=O)COc1ccc(Cl)cc1Cl [Compound A13]",
    "UNIT_TEXT": "%",
    "pest or weed control at 280 g/ha": 68
  },
  {
    "COMPOUND": "O=C(COc1ccc(Cl)cc1Cl)NNC(=O)c1ccccc1 [Compound D10]",
    "UNIT_TEXT": "%",
    "pest or weed control at 280 g/ha": 68
  },
  {
    "COMPOUND": "CCOC(=O)C(=NOC(=O)COc1ccc(Cl)cc1Cl)C(=O)OCC [Compound A7]",
    "UNIT_TEXT": "%",
    "pest or weed control at 280 g/ha": 75
  },
  {
    "COMPOUND": "Cc1ccc(S(=O)(=O)NC(=O)COc2ccc(Cl)cc2Cl)cc1 [Compound D5]",
    "UNIT_TEXT": "%",
    "pest or weed control at 280 g/ha": 70
  },
  {
    "COMPOUND": "O=C(COc1ccc(Cl)cc1Cl)ONC(=O)c1ccc(C(=O)NOC(=O)COc2ccc(Cl)cc2Cl)cc1 [Compound B4]",
    "UNIT_TEXT": "%",
    "pest or weed control at 280 g/ha": 70
  },
  {
    "COMPOUND": "CN(OC(=O)COc1ccc(Cl)cc1Cl)C(=O)c1ccccc1 [Compound A16]",
    "UNIT_TEXT": "%",
    "pest or weed control at 280 g/ha": 70
  },
  {
    "COMPOUND": "N/C(=N\\OC(=O)COc1ccc(Cl)cc1Cl)c1ccco1 [Compound A5]",
    "UNIT_TEXT": "%",
    "pest or weed control at 280 g/ha": 68
  },
  {
    "COMPOUND": "CC(=O)/C(C)=N/OC(=O)COc1ccc(Cl)cc1Cl [Compound A8]",
    "UNIT_TEXT": "%",
    "pest or weed control at 280 g/ha": 73
  },
  {
    "COMPOUND": "CCO/C(CC)=N\\OC(=O)COc1ccc(Cl)cc1Cl [Compound A9]",
    "UNIT_TEXT": "%",
    "pest or weed control at 280 g/ha": 83
  },
  {
    "COMPOUND": "CN(NC(=O)COc1ccc(Cl)cc1Cl)C(=O)c1ccccc1 [Compound D9]",
    "UNIT_TEXT": "%",
    "pest or weed control at 280 g/ha": 73
  },
  {
    "COMPOUND": "O=C(COc1ccc(Cl)cc1Cl)O/N=C/c1ccc(/C=N/OC(=O)COc2ccc(Cl)cc2Cl)cc1 [Compound B3]",
    "UNIT_TEXT": "%",
    "pest or weed control at 280 g/ha": 68
  },
  {
    "COMPOUND": "O=C(COc1ccc(Cl)cc1Cl)NOCc1ccccc1 [Compound D8]",
    "UNIT_TEXT": "%",
    "pest or weed control at 280 g/ha": 65
  },
  {
    "COMPOUND": "N/C(=N\\OC(=O)COc1ccc(Cl)cc1Cl)c1ccc(/C(N)=N/OC(=O)COc2ccc(Cl)cc2Cl)cc1 [Compound B5]",
    "UNIT_TEXT": "%",
    "pest or weed control at 280 g/ha": 20
  },
  {
    "COMPOUND": "O=C(COc1ccc(Cl)cc1Cl)NOc1ccccc1 [Compound D7]",
    "UNIT_TEXT": "%",
    "pest or weed control at 280 g/ha": 70
  },
  {
    "COMPOUND": "O=C(COc1ccc(Cl)cc1Cl)ON1C(=O)c2ccccc2C1=O [Compound A15]",
    "UNIT_TEXT": "%",
    "pest or weed control at 280 g/ha": 73
  },
  {
    "COMPOUND": "C/C(N)=N/OC(=O)COc1ccc(Cl)cc1Cl [Compound A12]",
    "UNIT_TEXT": "%",
    "pest or weed control at 280 g/ha": 80
  },
  {
    "COMPOUND": "Cn1c(O)c(C(=O)COc2ccc(Cl)cc2Cl)c2ccccc21 [Compound C1]",
    "UNIT_TEXT": "%",
    "pest or weed control at 280 g/ha": 78
  },
  {
    "COMPOUND": "O=C(COc1ccc(Cl)cc1Cl)ON(Cc1ccccc1)Cc1ccccc1 [Compound A14]",
    "UNIT_TEXT": "%",
    "pest or weed control at 280 g/ha": 68
  }
]
